Test system: IGROV1 ovarian
Method summary: NCI-60 one-dose screen, 48 h (100 = growth as untreated, 0 = no growth, -100 = all killed)
Reported conditions: 10 µM unless noted
This is part of a sample that, as a whole, favours compounds with a hit. Of some 83,000 tested, about 20% had one in any assay.
Label Y when growth is at or above 40%; anything below gets N.

Worked examples, 3 compounds total:
In [3]: df
Out[3]:
                                   compound  assigned_label
0  COc1ccc(N2N=C(c3ccc4c(c3)OCO4)CC2c2cccc(NC(=O)CCCNS(=O)(=O)c3ccc(F)cc3)c2)cc1 (stereo not drawn)               Y
1  N#Cc1c(-c2cccnc2)cc(-c2ccc3ccccc3c2)[nH]c1=O               Y
2  COc1ccc(C2CC(c3ccc(S(=O)(=O)NCCNc4nc(Nc5ccc(F)cc5)nc(N(C)C)n4)cc3)=Nc3c(N)nc(N)nc3N2)cc1 (stereo not drawn)               Y

Input line: # bool: growth of CCOC(=O)C1=C(N)N(c2ccccc2)C2=C(C(=O)CC(C)(C)C2)C1c1cccc(Cl)c1Cl (stereo not drawn) >= 40%
Output line: Y

Input line: Could you please find out whether COc1ccc(NC(=O)[C@H](CO)NC(=O)OC(C)(C)C)cc1C(=O)Nc1cccc(C2CC(=O)c3c(cc(OC)c(OC)c3OC)O2)c1 (stereo partly drawn) has growth that meets 40% or exceeds it?
Output line: Y
